Give measured inhibition for each item. Keep answers brief.
Target: cAMP and cAMP-inhibited cGMP 3',5'-cyclic phosphodiesterase 10A (Homo sapiens)
Assay: Inhibition of PDE10A (unknown origin) at 10 uM

Use the examples below as a reference point.
compound string	observed value
Cc1cc2c3ccccc3cc(CCc3nc(-c4ccccc4)cn3C)n2n1	72%
COCc1cc2c3cccnc3cc(CCc3nc(-c4ccccc4)cn3C)n2n1	106%
Cc1cc2c3ccncc3cc(CCc3nc(-c4ccccc4)cn3C)n2n1	102%
Cc1cc2c3ccccc3cc(CCc3nc4ccccc4n3C)n2n1	77%

Now for the molecule whose inhibition we want.
Task: Entry `Cn1cc(-c2ccccc2)nc1CCc1cc2ncccc2c2cc(C(F)(F)F)nn12` has what inhibition?
Result: 101%

* * *

Target: cGMP-dependent 3',5'-cyclic phosphodiesterase (Homo sapiens)
Test: Inhibition of PDE2A (unknown origin) at 10 uM
value type: inhibition (%)
Answers are plain numbers, in %.

Use the examples below as a reference point.
compound string	inhibition (%)
Cc1cc2c3ccccc3cc(CCc3nc4ccccc4n3C)n2n1	8
Cc1cc2c3ccncc3cc(CCc3nc(-c4ccccc4)cn3C)n2n1	17
Cc1cc2c3cnccc3cc(CCc3nc(-c4ccccc4)cn3C)n2n1	20
Cc1cc2c3cnccc3cc(CCc3nc4ccccc4n3C)n2n1	54
CCOC(=O)c1cc2c3cccnc3cc(CCc3nc4ccccc4n3C)n2n1	20
CCOC(=O)c1cc2c3cccnc3cc(CCc3nc(-c4ccccc4)cn3C)n2n1	44

Need inhibition for each of these compounds.
1. COCc1cc2c3cccnc3cc(CCc3nc(-c4ccccc4)cn3C)n2n1
2. Cn1cc(-c2ccccc2)nc1CCc1cc2ncccc2c2cc(C(F)(F)F)nn12
3. Cc1cc2c3cccnc3cc(CCc3nc(-c4ccccc4)cn3C)n2n1
4. Cc1cc2c3ccccc3cc(CCc3nc(-c4ccccc4)cn3C)n2n1
5. Cc1cc2c3cccnc3cc(CCc3nc4ccccc4n3C)n2n1

Result:
[69, 13, 28, 14, 55]

* * *

Target: 3',5'-cyclic-AMP phosphodiesterase 7B (Homo sapiens)
Assay: Inhibition of PDE7B (unknown origin) at 10 uM
Give measured inhibition for each item. Keep answers brief.
Answers are plain numbers, in %.

Use the examples below as a reference point.
compound string	subject of test	quantity unit	inhibition
Cc1cc2c3ccncc3cc(CCc3nc(-c4ccccc4)cn3C)n2n1	3',5'-cyclic-AMP phosphodiesterase 7B (Homo sapiens)	%	53
Cc1cc2c3cnccc3cc(CCc3nc4ccccc4n3C)n2n1	3',5'-cyclic-AMP phosphodiesterase 7B (Homo sapiens)	%	-3
COCc1cc2c3cccnc3cc(CCc3nc(-c4ccccc4)cn3C)n2n1	3',5'-cyclic-AMP phosphodiesterase 7B (Homo sapiens)	%	47
CCOC(=O)c1cc2c3cccnc3cc(CCc3nc4ccccc4n3C)n2n1	3',5'-cyclic-AMP phosphodiesterase 7B (Homo sapiens)	%	17
CCOC(=O)c1cc2c3cccnc3cc(CCc3nc(-c4ccccc4)cn3C)n2n1	3',5'-cyclic-AMP phosphodiesterase 7B (Homo sapiens)	%	-4

Need inhibition for each of these molecules.
1. Cc1cc2c3ccccc3cc(CCc3nc4ccccc4n3C)n2n1
2. Cc1cc2c3cnccc3cc(CCc3nc(-c4ccccc4)cn3C)n2n1
3. Cc1cc2c3ccccc3cc(CCc3nc(-c4ccccc4)cn3C)n2n1
4. Cn1cc(-c2ccccc2)nc1CCc1cc2ncccc2c2cc(C(F)(F)F)nn12

Result:
[11, 41, 13, 41]

Need inhibition for each of these molecules.
1. Cc1cc2c3cccnc3cc(CCc3nc4ccccc4n3C)n2n1
2. Cc1cc2c3cccnc3cc(CCc3nc(-c4ccccc4)cn3C)n2n1

Result:
1. 27
2. 18

* * *

Target: cAMP and cAMP-inhibited cGMP 3',5'-cyclic phosphodiesterase 10A (Homo sapiens, UniProt Q9Y233)
Sequence (Q9Y233 whole entry, the tested form may be a part): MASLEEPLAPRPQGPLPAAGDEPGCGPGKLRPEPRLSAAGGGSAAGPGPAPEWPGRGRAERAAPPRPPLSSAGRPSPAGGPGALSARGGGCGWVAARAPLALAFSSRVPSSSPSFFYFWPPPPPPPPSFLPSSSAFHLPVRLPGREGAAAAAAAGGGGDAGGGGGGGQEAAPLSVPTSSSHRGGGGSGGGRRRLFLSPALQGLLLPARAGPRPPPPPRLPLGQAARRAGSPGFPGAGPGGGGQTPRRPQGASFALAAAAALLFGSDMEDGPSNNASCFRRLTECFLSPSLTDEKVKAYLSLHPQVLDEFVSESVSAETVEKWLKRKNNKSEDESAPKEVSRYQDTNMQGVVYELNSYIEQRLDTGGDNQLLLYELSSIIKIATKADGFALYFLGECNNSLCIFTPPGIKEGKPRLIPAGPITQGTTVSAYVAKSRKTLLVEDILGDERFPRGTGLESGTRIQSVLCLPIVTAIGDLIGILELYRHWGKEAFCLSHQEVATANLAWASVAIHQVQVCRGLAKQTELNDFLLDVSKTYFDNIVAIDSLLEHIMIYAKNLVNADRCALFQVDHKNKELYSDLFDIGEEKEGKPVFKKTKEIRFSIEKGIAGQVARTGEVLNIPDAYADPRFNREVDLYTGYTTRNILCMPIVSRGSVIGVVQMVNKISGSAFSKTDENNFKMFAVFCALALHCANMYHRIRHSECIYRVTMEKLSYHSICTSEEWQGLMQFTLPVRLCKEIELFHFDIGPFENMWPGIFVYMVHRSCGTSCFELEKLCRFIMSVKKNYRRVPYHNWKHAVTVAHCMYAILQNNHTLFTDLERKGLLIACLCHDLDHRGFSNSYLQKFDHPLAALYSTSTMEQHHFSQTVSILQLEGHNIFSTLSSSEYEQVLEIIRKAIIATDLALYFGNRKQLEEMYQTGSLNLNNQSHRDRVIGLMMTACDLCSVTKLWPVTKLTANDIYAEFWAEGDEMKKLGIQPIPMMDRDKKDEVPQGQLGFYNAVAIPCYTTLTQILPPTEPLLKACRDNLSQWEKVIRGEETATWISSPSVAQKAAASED
Assay: Inhibition of human PDE10A (amino acids 14 to 779) using [3H]-labelled cyclic nucleotide as substrate after 1 hr b beta counting
value type: IC50

compound string	observed value
Cc1cc2c3cccnc3cc(CCc3nc(-c4ccccc4)cn3C)n2n1	40 nM
Cc1cc2c3ccccc3cc(CCc3nc4ccccc4n3C)n2n1	1000 nM
COCc1cc2c3cccnc3cc(CCc3nc(-c4ccccc4)cn3C)n2n1	42 nM
Cn1cc(-c2ccccc2)nc1CCc1cc2ncccc2c2cc(C(F)(F)F)nn12	190 nM
Cc1cc2c3cnccc3cc(CCc3nc(-c4ccccc4)cn3C)n2n1	55 nM
Cc1cc2c3cccnc3cc(CCc3nc4ccccc4n3C)n2n1	170 nM
Cc1cc2c3ccccc3cc(CCc3nc(-c4ccccc4)cn3C)n2n1	900 nM
Cc1cc2c3ccncc3cc(CCc3nc(-c4ccccc4)cn3C)n2n1	40 nM

Need IC50 for each of these molecules.
1. CCOC(=O)c1cc2c3cccnc3cc(CCc3nc(-c4ccccc4)cn3C)n2n1
2. CCOC(=O)c1cc2c3cccnc3cc(CCc3nc4ccccc4n3C)n2n1
3. Cc1cc2c3cnccc3cc(CCc3nc4ccccc4n3C)n2n1

Result:
["220 nM", "1300 nM", "480 nM"]

* * *

Target: UniProt Q14432
Experiment: Inhibition of PDE3A (unknown origin) at 10 uM
value type: inhibition (%)
One number for each entry, in %.

compound string	inhibition (%)
Cc1cc2c3ccccc3cc(CCc3nc(-c4ccccc4)cn3C)n2n1	20

Need inhibition for each of these molecules.
1. Cc1cc2c3ccncc3cc(CCc3nc(-c4ccccc4)cn3C)n2n1
2. Cc1cc2c3cnccc3cc(CCc3nc4ccccc4n3C)n2n1
3. CCOC(=O)c1cc2c3cccnc3cc(CCc3nc(-c4ccccc4)cn3C)n2n1
4. Cc1cc2c3cnccc3cc(CCc3nc(-c4ccccc4)cn3C)n2n1
5. Cc1cc2c3cccnc3cc(CCc3nc4ccccc4n3C)n2n1
6. COCc1cc2c3cccnc3cc(CCc3nc(-c4ccccc4)cn3C)n2n1
7. Cc1cc2c3cccnc3cc(CCc3nc(-c4ccccc4)cn3C)n2n1

Result:
49
30
13
13
16
51
5

* * *

Molecular target: cGMP-specific 3',5'-cyclic phosphodiesterase (Homo sapiens) (UniProt O76074)
Assay: Inhibition of PDE5A (unknown origin) at 10 uM
value type: inhibition (%)
One number for each entry, in %.

Need inhibition for each of these compounds.
1. Cc1cc2c3ccncc3cc(CCc3nc(-c4ccccc4)cn3C)n2n1
2. Cc1cc2c3ccccc3cc(CCc3nc4ccccc4n3C)n2n1
3. Cc1cc2c3cccnc3cc(CCc3nc4ccccc4n3C)n2n1
4. CCOC(=O)c1cc2c3cccnc3cc(CCc3nc4ccccc4n3C)n2n1
5. Cc1cc2c3cnccc3cc(CCc3nc4ccccc4n3C)n2n1
6. CCOC(=O)c1cc2c3cccnc3cc(CCc3nc(-c4ccccc4)cn3C)n2n1

Result:
1: 59; 2: 20; 3: 67; 4: 38; 5: 39; 6: 13

Need inhibition for each of these compounds.
1. COCc1cc2c3cccnc3cc(CCc3nc(-c4ccccc4)cn3C)n2n1
2. Cn1cc(-c2ccccc2)nc1CCc1cc2ncccc2c2cc(C(F)(F)F)nn12
3. Cc1cc2c3cnccc3cc(CCc3nc(-c4ccccc4)cn3C)n2n1

Result:
1. 38
2. 33
3. 15

Task: Entry `Cc1cc2c3cccnc3cc(CCc3nc(-c4ccccc4)cn3C)n2n1` has what inhibition?
Result: 35

* * *

Target: cGMP-inhibited 3',5'-cyclic phosphodiesterase 3A (Homo sapiens) (UniProt Q14432)
Sequence (Q14432 whole entry): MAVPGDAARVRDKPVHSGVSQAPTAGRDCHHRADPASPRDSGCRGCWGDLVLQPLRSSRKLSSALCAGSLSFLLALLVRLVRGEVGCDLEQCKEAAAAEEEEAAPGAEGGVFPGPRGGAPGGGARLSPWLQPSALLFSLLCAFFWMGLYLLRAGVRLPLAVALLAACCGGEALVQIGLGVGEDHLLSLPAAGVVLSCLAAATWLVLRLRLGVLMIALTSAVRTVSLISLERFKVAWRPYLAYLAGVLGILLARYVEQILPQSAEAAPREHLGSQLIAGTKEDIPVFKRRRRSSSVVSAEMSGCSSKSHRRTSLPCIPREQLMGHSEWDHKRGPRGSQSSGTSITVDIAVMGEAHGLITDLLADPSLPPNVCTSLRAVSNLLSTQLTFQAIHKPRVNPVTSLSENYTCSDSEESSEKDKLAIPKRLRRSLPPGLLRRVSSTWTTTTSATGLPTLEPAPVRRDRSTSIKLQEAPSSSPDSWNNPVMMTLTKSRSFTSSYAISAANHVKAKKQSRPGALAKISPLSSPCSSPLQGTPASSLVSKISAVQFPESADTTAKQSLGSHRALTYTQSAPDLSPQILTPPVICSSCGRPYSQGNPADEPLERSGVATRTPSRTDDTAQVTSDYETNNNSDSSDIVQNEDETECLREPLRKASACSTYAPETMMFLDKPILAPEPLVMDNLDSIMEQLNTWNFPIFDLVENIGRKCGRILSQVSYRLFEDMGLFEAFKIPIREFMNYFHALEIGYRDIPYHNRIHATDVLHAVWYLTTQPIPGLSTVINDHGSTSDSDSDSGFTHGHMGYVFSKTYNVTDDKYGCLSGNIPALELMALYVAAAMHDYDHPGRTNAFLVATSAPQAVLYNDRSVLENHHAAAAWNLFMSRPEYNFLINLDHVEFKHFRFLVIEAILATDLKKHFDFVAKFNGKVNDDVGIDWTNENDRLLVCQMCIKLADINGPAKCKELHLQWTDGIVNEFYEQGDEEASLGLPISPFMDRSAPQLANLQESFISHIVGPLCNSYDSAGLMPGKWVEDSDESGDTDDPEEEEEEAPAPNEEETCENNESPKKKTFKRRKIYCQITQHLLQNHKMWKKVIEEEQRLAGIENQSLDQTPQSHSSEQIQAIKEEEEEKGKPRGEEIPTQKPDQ
Assay: Inhibition of PDE3A (unknown origin) at 10 uM
Give measured inhibition for each item. Keep answers brief.
Give me the value, and tack the unit on after it.

Use the examples below as a reference point.
compound string	subject of test	observed value
Cc1cc2c3ccccc3cc(CCc3nc4ccccc4n3C)n2n1	cGMP-inhibited 3',5'-cyclic phosphodiesterase 3A (Homo sapiens) (UniProt Q14432)	15%
Cn1cc(-c2ccccc2)nc1CCc1cc2ncccc2c2cc(C(F)(F)F)nn12	cGMP-inhibited 3',5'-cyclic phosphodiesterase 3A (Homo sapiens) (UniProt Q14432)	28%

Task: Entry `CCOC(=O)c1cc2c3cccnc3cc(CCc3nc4ccccc4n3C)n2n1` has what inhibition?
Result: 1%
